Cited source: the nanobody polyreactivity screen of Harvey et al. (2022)

assay_procedure: yeast display, Sf9 membrane polyspecificity reagent, FACS + sequencing; frameworks hold sequencing errors
readout_kind: polyreactivity (PSR sort gate)

Some solved cases for reference:
{"sequence_data": "QVQLVESGGGLVQAGGSLRLSCAASGLIFSSNAMGWARQAPGKEREWVAAITSGGSTNYADSVKGRFTISRDNAHNTVYLQMNSLKPEDTAVYYCNAVSPHYFGGSYDYWGQGTQVTVSS", "polyreactivity (PSR sort gate)": "low polyreactivity"}
{"sequence_data": "QVQLVESGGGLVQAGGSLRLSCAASGFTFRSNAMGWYRQAPGKERELVAAISYSGDSTYYADSVKGRFTISRDNAKNTVYLQMNSLKPEDTAVYYCNAVGSGYRSWYDYWGQGTQVTVSS", "polyreactivity (PSR sort gate)": "high polyreactivity"}
{"sequence_data": "QVQLVESGGGLVQAGGSLRISCAASGSIFRIYAMGWYRQAPGKERELVAAISWTGGSTYYADSVKGRFSISRDNAKNTVYLQMNSMKPDDTAVYYCASRPRYKFSAYEYWGQGTQVTVSS", "polyreactivity (PSR sort gate)": "high polyreactivity"}
{"sequence_data": "QVQLVESGGGLVQAGGSLRLSCAASGFTFKYYDMGWYRQAPGKERELVAAIDTSGGNTYYADSVKGRFTISRDNAKNTVYLQMNSLKPEDTAVYYCAATVPYYHDDYWGQGTQVTVSS", "polyreactivity (PSR sort gate)": "low polyreactivity"}
{"sequence_data": "QVQLVESGGGLVQAGGSLRLICAASGRTFRHNAMGWYRQAPGKERELVAAISSSGTNTHYADSVKGRFTISRDNAQNTVYLQMNSLKPEDTAVYYCAADRWGARRKQYHENGYWGQGTQVTVSS", "polyreactivity (PSR sort gate)": "high polyreactivity"}

Entry QVQLVESGGGLVQAGGSLRLSCAASGRTFAINTMGWYRQAPGKEREFVASITRRGGSTYYADSVKVRFTISLDNAKNTVYFQMNSLKPEDTAVYYCNAELRWRLRARAAYYYWGQGSQVTVSS ; polyreactivity (PSR sort gate) = high polyreactivity

Looking up QVQLQESGSGLVQAGGSLRLSCAASGNISHYNDMGWYRQAPGKEREPVATINSGSITYYADSVKGRFTISRDNAKYTVYLQMNSLKPEDTAVYYCAVKQHGYFYLDYWGQGTQVTVSS , I see its polyreactivity (PSR sort gate) listed as high polyreactivity

Summary for this sequence, QVQLVESGGGLVQAGGSLRLSCAASGSIFYLYAMGWYRQAPGKERELVASISWGDSSTYYADSVKGRFTISRDNAKNTVYLQMNSLKPEDTAVYYCAADEYRQYALYDYWGQGTQVTVSS : polyreactivity (PSR sort gate) is low polyreactivity

What the record says about QVQLVESGGGLVQAGGSLRLSCAASGNIFRPYTMGWNRQEPGKERELVARISSGGSTNYADSVKGRFTISRDNAKNTVYFQMNSLKPEDTAVYYCAKRYGTVHSRYGYWGQGTQVTVSS : polyreactivity (PSR sort gate) is high polyreactivity

Noted for QVQLVESGGGLVQAGGSLRLSCAASGRTFFYNAMGWYRQAPGKERELVAAISGRGGRTYYADSVKGRFTISRDNAKNTVHLQMNSLKPEDTAVYYCAADAGPLRYDYWGQGTQVTVSS : its polyreactivity (PSR sort gate) reads high polyreactivity

Notebook: QVQLVESGGGLVQAGGSLRLSCAASGSIFPIYAMGRYRQAPGKEMELVAAINRSGGSTYYADSVKGRFTISRDNAKNSVYLQMNSLIPEDTAVYYCNADYGYHNQLFWGYYGWSSDHWGQGTQVTVSS , polyreactivity (PSR sort gate) read as low polyreactivity
